- TEST METHOD NOTES: chemical genetic growth profiling, strain panel (AID 1159580);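 also: tested at 20 µM; growth read once vehicle control cultures reached saturation at 30 °C; 1 = growth at the plate median or of vehicle wells; lower values mean less growth of the strain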
- ASSAY CONDITIONS: S. cerevisiae deletion strains, growth OD, locus YOR061W, strain CKA2, active compounds read low
About 2,000 (36%) of roughly 5,500 compounds were called active. Another 18% or so got no clear call; they are omitted. The list shows a part of the results.
Hi there, I'd appreciate the recorded normalized growth for every entry that follows.
Numbers only.

Some solved cases for reference:
MOLECULE: NC(=O)c1ccccc1O
NUMERIC RESULT: 1
--
MOLECULE: Cc1c(OCC(F)(F)F)ccnc1CS(=O)c1nc2ccccc2[nH]1 (centres undefined)
NUMERIC RESULT: 0.992
--
MOLECULE: O=C(O)c1ccccc1O
NUMERIC RESULT: 0.999

Then this molecule:
Req: Tell me its normalized growth given O=c1cc(CSc2ccc(Cl)cc2)c2ccc(O)cc2o1 as the entry.
Resp: 0.712

====

Hi there, I'd appreciate the recorded normalized growth for every entry that follows.
- TEST METHOD NOTES: chemical genetic growth profiling, strain panel (AID 1159580);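 also: tested at 20 µM; growth read once vehicle control cultures reached saturation at 30 °C; 1 = growth at the plate median or of vehicle wells; lower values mean less growth of the strain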
- ASSAY CONDITIONS: S. cerevisiae deletion strains, growth OD, locus YNL209W, strain ssb2, active compounds read low
In all, about 5,500 compounds went through this assay and about 2,000 (36%) were called active. Not shown: some 18% with an inconclusive outcome. Some of the results follow.
Answers are plain numbers.

Some solved cases for reference:
COMPOUND: Oc1ccc2c3c1OC1[C@@H](O)CC[C@@]4(O)[C@@H](C2)N(CC2CCC2)CC[C@]314 (stereo partly drawn)
normalized growth: 1.01

COMPOUND: C=CCSC[C@@H](N)C(=O)O
normalized growth: 0.991

COMPOUND: COc1ccc(-c2cc(=O)c3c(O)cc(O)cc3o2)cc1
normalized growth: 0.967

COMPOUND: C/C=C/CC(C)C(O)C1C(=O)NC(CC)C(=O)N(C)CC(=O)N(C)C(CC(C)C)C(=O)NC(C(C)C)C(=O)N(C)C(CC(C)C)C(=O)NC(C)C(=O)NC(C)C(=O)N(C)C(CC(C)C)C(=O)N(C)C(CC(C)C)C(=O)N(C)C(C(C)C)C(=O)N1C (stereo not drawn)
normalized growth: 1.01

COMPOUND: COc1ccc(-c2cc(=O)c3c(OC)c(OC)c(OC)c(OC)c3o2)cc1OC
normalized growth: 1

Below are some compounds; for each one, tell me its normalized growth.
1. COc1cc(-c2cc(=O)c3c(O)c(OC)c(OC)c(OC)c3o2)cc(OC)c1OC
2. NC(=O)c1ccccc1O
3. COc1ccc(-c2cc(=O)c3c(O)c(OC)c(O[C@H]4O[C@H](CO[C@@H]5O[C@@H](C)[C@H](O)[C@@H](O)[C@H]5O)[C@@H](O)[C@H](O)[C@H]4O)cc3o2)cc1

Resp:
1: 1; 2: 0.98; 3: 0.986

====

Hi there, I'd appreciate the recorded normalized growth for every entry that follows.
- TEST METHOD NOTES: chemical genetic growth profiling, strain panel (AID 1159580);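 also: tested at 20 µM; growth read once vehicle control cultures reached saturation at 30 °C; 1 = growth at the plate median or of vehicle wells; lower values mean less growth of the strain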
- ASSAY CONDITIONS: S. cerevisiae deletion strains, growth OD, locus YDR069C, strain doa4, active compounds read low
The campaign covered roughly 5,500 compounds. About 2,000 (36%) were called active. Not shown: some 18% with an inconclusive outcome. The list shows a part of the results.
Answers are plain numbers.

COMPOUND: Cc1c(OCC(F)(F)F)ccnc1CS(=O)c1nc2ccccc2[nH]1 (stereo not drawn)
normalized growth: 1.01
--
COMPOUND: O=C(CCCN1CCC2(CC1)C(=O)NCN2c1ccccc1)c1ccc(F)cc1
normalized growth: 0.946
--
COMPOUND: CC1CCCC(C)N1NC(=O)c1ccc(Cl)c(S(N)(=O)=O)c1 (stereo not drawn)
normalized growth: 1.01
--
COMPOUND: CCC(=O)O[C@]1(C(=O)CCl)[C@@H](C)CC2C3CCC4=CC(=O)C=C[C@]4(C)[C@@]3(F)[C@@H](O)C[C@@]21C (stereo partly drawn)
normalized growth: 1.03
--
COMPOUND: COC(=O)C[C@H]1C(C)(C)[C@@H](O)[C@@H]2CC3=C4CC(O)O[C@@H](c5ccoc5)[C@]4(C)CCC3[C@@]1(C)C2=O (stereo partly drawn)
normalized growth: 1.02

Below are some compounds; for each one, tell me its normalized growth.
1. CC(=O)O[C@@H]1CC2C(C)(CC[C@H](O)C2(C)C)C2CC[C@]3(C)C(=CC(=O)O[C@H]3c3ccoc3)C21C (stereo partly drawn)
2. C[C@H]1[C@H](C)CC[C@]2(C(=O)O)CC[C@]3(C)C(=CCC4[C@@]5(C)C[C@@H](O)[C@H](O)[C@@](C)(CO)C5CC[C@]43C)[C@H]12 (stereo partly drawn)
3. N#Cc1c(Cl)cccc1Cl
4. CC1Cc2ccccc2N1NC(=O)c1ccc(Cl)c(S(N)(=O)=O)c1 (stereo not drawn)
5. COc1c(O)cc2c(c1O)[C@H]1O[C@H](CO)[C@@H](O)[C@H](O)[C@@H]1OC2=O
6. NC(=O)c1cc([N+](=O)[O-])cc([N+](=O)[O-])c1

Resp:
[1.02, 1.02, 0.983, 1, 1.03, 0.979]
